- measured_on: UrtA (Prochlorococcus marinus, UniProt Q7V3V9, Y141A)
- Construct: 24-residue predicted signal peptide removed from 431-residue precursor (432 elsewhere in the source); C-terminal 6xHis tag, pET-22b, E. coli BL21(DE3); about 50 kDa; monomer; structure residues 38-431 described
- procedure_text: isothermal titration calorimetry
result_type: pKd
Please keep in mind that pKd is minus log10 of the molar concentration; only the number is needed.

# get_value(readout= pKd, system= UrtA (Prochlorococcus marinus, UniProt Q7V3V9, Y141A)) for NC(N)=O
5.10

* * *

- measured_on: UrtA (Prochlorococcus marinus)
- Sequence (Q7V3V9 25-431): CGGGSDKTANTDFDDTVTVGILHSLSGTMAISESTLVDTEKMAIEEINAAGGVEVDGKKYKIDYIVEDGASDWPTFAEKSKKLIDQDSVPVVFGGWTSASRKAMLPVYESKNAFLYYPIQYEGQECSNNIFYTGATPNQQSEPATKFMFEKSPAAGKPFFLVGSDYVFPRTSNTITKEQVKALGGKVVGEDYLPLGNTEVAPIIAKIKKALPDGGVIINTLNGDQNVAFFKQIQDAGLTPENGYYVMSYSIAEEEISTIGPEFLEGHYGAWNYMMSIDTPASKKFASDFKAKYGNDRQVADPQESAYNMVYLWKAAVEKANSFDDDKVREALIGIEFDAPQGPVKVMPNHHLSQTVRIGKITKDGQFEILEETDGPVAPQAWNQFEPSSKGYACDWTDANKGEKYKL
result_type: pKd
Please keep in mind that pKd is minus log10 of the molar concentration; only the number is needed.

Name the recorded pKd for NC(N)=O [urea] .
6.85

* * *

- measured_on: UrtA (Prochlorococcus marinus, UniProt Q7V3V9, S274A)
- Construct: 24-residue predicted signal peptide removed from 431-residue precursor (432 elsewhere in the source); C-terminal 6xHis tag, pET-22b, E. coli BL21(DE3); about 50 kDa; monomer; structure residues 38-431 described
- procedure_text: isothermal titration calorimetry
result_type: Kd (µM)
Your answer is read as µM, so omit the unit and give the number.

# get_value(readout= Kd, system= UrtA (Prochlorococcus marinus, UniProt Q7V3V9, S274A)) for NC(N)=O
1.28
